Hello, the source for this data is paper PMC7606276, in case you need it.

Tested on: CHO-K1 cells
Measurement Notes: MTT cell viability assay on CHO-K1 cells
Assay type: cell-based, Chinese hamster
Run Parameters: Cricetulus griseus, 24 h exposure
Listed molecules paired with reported IC50

>  <Molecule>
CCCCCCCCCCCC[n+]1cccc(Cl)c1.[Br-] [Compound B12, 1-dodecyl-3-chloropyridinium bromide]

>  <Unit Info>
µM

>  <IC50>
25.5

$$$$
>  <Molecule>
CCCCCCCCCCCC[n+]1ccccc1 [Compound A12, 1-dodecylpyridinium]

>  <Unit Info>
µM

>  <IC50>
38.8

$$$$
>  <Molecule>
CCCCCCCCCCCCCC[n+]1ccn(CCO)c1.[Br-] [Compound C14]

>  <Unit Info>
µM

>  <IC50>
1.19

$$$$
